Tested on: Monoclonal antibody (mAb)
Test: Binding affinity towards monoclonal antibody (MAb) using ELISA assay, activity expressed relative to WQMGHS=1
Returns one of Met or Not met; Met when Relative activity is >= 0.9.

CSCC[C@H](NC(=O)[C@H](CCC(N)=O)NC(=O)[C@@H](N)Cc1c[nH]c2ccccc12)C(=O)NCC(=O)N[C@H](Cc1c[nH]cn1)C(=O)N[C@H](CO)C(=O)O | Met
CSCC[C@@H](NC(=O)[C@@H](CCC(N)=O)NC(=O)[C@H](N)Cc1c[nH]c2ccccc12)C(=O)NCC(=O)N[C@@H](Cc1c[nH]cn1)C(=O)N[C@@H](CO)C(=O)O | Met

In the following, a different compound is considered.
## Input Is it the case that CSCC[C@@H](NC(=O)[C@@H](CCC(N)=O)NC(=O)[C@@H](N)Cc1c[nH]c2ccccc12)C(=O)NCC(=O)N[C@@H](Cc1c[nH]cn1)C(=O)N[C@H](CO)C(=O)O has Relative activity reaching or exceeding 0.9?
## Output Not met
